Reference source for all entries: ChEMBL document CHEMBL1140036

- testedOn: Gastric inhibitory polypeptide receptor (Homo sapiens)
- Sequence (P48546 whole entry): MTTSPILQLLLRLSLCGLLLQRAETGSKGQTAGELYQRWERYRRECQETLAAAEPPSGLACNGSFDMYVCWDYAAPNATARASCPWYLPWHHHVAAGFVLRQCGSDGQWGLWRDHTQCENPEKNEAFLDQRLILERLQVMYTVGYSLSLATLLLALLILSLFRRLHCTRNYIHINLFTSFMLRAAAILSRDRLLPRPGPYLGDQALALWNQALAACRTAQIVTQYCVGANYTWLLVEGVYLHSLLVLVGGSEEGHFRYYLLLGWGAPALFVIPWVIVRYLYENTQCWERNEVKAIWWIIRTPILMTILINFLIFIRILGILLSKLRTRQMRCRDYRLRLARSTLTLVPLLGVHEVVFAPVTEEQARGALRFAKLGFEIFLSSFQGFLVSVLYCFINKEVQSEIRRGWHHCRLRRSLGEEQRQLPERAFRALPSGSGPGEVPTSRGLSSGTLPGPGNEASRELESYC
- testName: Binding affinity to human cloned GIPR expressed in BHK cells
assayMetric: IC50 (nM)
Field format: number, assumed nM, no unit text.

Please review the following examples before continuing.
compound=O=C(NC[C@@H](O)C(=O)O)c1ccc(CN(C(=O)Nc2cc(Cl)cc(Cl)c2)c2ccc(C3CCCCC3)cc2)cc1 assaymetric=IC50 measureunit=nM valuereported=93
compound="CC(C)(C)c1ccc(N(Cc2ccc(C(=O)NCC(O)C(=O)O)cc2)C(=O)Nc2ccc(OC(F)(F)F)cc2)cc1 (racemic)" assaymetric=IC50 measureunit=nM valuereported=315
compound=Cc1cc(C)cc(NC(=O)N(Cc2ccc(C(=O)NC[C@@H](O)C(=O)O)cc2)[C@H]2CC[C@H](C(C)(C)C)CC2)c1 assaymetric=IC50 measureunit=nM valuereported=220

Shift focus to the following entry.
Suppose we examine the compound `CC(C)(C)[C@H]1CC[C@H](N(Cc2ccc(C(=O)NC[C@H](O)C(=O)O)cc2)C(=O)Nc2cc(C(F)(F)F)cc(C(F)(F)F)c2)CC1` ; what IC50 value has been reported?
373
